molecular target: human cloned somatostatin receptor 3 (human) (UniProt P32745); assay: 125I-Tyr11-SRIF-14 displacement
Sequence (P32745 whole entry): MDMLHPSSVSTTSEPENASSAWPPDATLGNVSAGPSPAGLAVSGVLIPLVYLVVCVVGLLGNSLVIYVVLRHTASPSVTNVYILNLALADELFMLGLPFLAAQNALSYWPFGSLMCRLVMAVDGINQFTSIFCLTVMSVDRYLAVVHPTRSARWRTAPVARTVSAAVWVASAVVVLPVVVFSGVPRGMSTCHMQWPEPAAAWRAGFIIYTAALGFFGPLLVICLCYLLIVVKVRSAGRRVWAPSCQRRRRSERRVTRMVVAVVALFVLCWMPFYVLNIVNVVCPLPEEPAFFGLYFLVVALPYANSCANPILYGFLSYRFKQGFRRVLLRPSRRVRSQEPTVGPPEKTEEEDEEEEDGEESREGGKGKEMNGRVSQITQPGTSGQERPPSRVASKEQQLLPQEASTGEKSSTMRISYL
*1 amine or outer side, *2 acyl side, *3 side chain or, on linkers, in order; H or OH if unused. Bridges are numbered along the chain shown (N, C = ends). [ ]: non-standard residue; d: D form. The star is where a group is joined. DOTA = O=C(O)CN1CCN(CC(=O)O)CCN(CC(=O)*)CCN(CC(=O)O)CC1; N(2-mercaptoethyl)Gly = O=C(CN(CCS[*:3])[*:1])[*:2]; Orn = NCCC[C@H](N)C(=O)O
Examples of binders with documented % displacement at 1 nM follow.
Return type: number; implicit unit %.

- {DOTA}-[dF]E[Orn]CF[dW]KTF[N(2-mercaptoethyl)Gly]-NH2 (disulfide 4-10; SMILES C[C@@H](O)[C@@H]1NC(=O)[C@H](CCCCN)NC(=O)[C@@H](Cc2c[nH]c3ccccc23)NC(=O)[C@H](Cc2ccccc2)NC(=O)[C@@H](NC(=O)[C@H](CCCN)NC(=O)[C@H](CCC(=O)O)NC(=O)[C@@H](Cc2ccccc2)NC(=O)CN2CCN(CC(=O)O)CCN(CC(=O)O)CCN(CC(=O)O)CC2)CSSCCN(CC(N)=O)C(=O)[C@H](Cc2ccccc2)NC1=O) [SEQ ID NO: 23]: 19

Turning now to a further binder:
### Prompt What value of measured % displacement at 1 nM is listed for {DOTA}-A[dF]RCF[dW]KTF[N(2-mercaptoethyl)Gly]-NH2 (disulfide 4-10; SMILES C[C@H](NC(=O)CN1CCN(CC(=O)O)CCN(CC(=O)O)CCN(CC(=O)O)CC1)C(=O)N[C@H](Cc1ccccc1)C(=O)N[C@@H](CCCNC(=N)N)C(=O)N[C@H]1CSSCCN(CC(N)=O)C(=O)[C@H](Cc2ccccc2)NC(=O)[C@H]([C@@H](C)O)NC(=O)[C@H](CCCCN)NC(=O)[C@@H](Cc2c[nH]c3ccccc23)NC(=O)[C@H](Cc2ccccc2)NC1=O) [SEQ ID NO: 12] ?
### Response 64
